# Test system: HDAC4/5 (MEF2 reporter gene)
# Method notes: HDAC subtype reporter gene assay, MEF-binding element (MEF2) luciferase in HeLa cells
# Assay type: cell-based
# Experimental context: Homo sapiens, M-HeLa, read-out: % of SAHA Response for HDAC4/5 at 10 μM (MEF2 reporter gene), 24 hours
Criterion: Emax at 10 µM strictly less than 30%. Met: condition met. Not met: condition not met.

Solved entries (count: 8):
O=C(CCCCNC(=O)c1cccc(/C=C2\C(=O)Nc3ccc(F)cc32)c1)NO ... condition not met
O=C(CCCCCNC(=O)c1cccc(/C=C2\C(=O)Nc3ccc(F)cc32)c1)NO ... condition met
Nc1ccccc1NC(=O)CCCCCNC(=O)c1ccc(/C=C2\C(=O)Nc3ccc(F)cc32)cc1 ... condition not met
Cc1[nH]c(/C=N/N=C2\C(=O)Nc3ccc(F)cc32)c(C)c1C(=O)NCCCCCC(=O)Nc1ccccc1N ... condition met
Nc1cc(F)ccc1NC(=O)CCCCCCCNC(=O)c1cccc(/C=C2\C(=O)Nc3ccc(F)cc32)c1 ... condition not met
Cc1[nH]c(/C=N/N=C2\C(=O)Nc3ccc(F)cc32)c(C)c1C(=O)NCCCCCCCC(=O)NO ... condition met
Nc1cc(F)ccc1NC(=O)CCCCCCCNC(=O)c1ccc(/C=N/N=C2\C(=O)Nc3ccc(F)cc32)cc1 ... condition not met
Nc1cc(F)ccc1NC(=O)CCCCCNC(=O)c1cccc(/C=C2\C(=O)Nc3ccc(F)cc32)c1 ... condition not met

## Input Is Emax at 10 µM strictly under 30% for the entry `Nc1ccccc1NC(=O)CCCCCNC(=O)c1cccc(/C=C2\C(=O)Nc3ccc(F)cc32)c1` ?
## Output condition not met

## Input Further, for `Cc1[nH]c(/C=N/N=C2\C(=O)Nc3ccc(F)cc32)c(C)c1C(=O)NCCCCCCCC(=O)Nc1ccccc1N` ?
## Output condition not met

----------
# Tested on: HDAC class I (p21 reporter gene)
# Method notes: HDAC subtype reporter gene assay, p21-promoter luciferase in HeLa cells
# Format: cell-based
# Experimental context: Homo sapiens, M-HeLa, read-out: % of SAHA Response for HDAC class I at 10 μM (p21 reporter gene), 24 hours
Measured quantity: Emax at 10 µM (%)
// note: answer is a bare numeric in %

Example results:
O=C(CCCCCNC(=O)c1cccc(/C=C2\C(=O)Nc3ccc(F)cc32)c1)NO ... 15
Nc1cc(F)ccc1NC(=O)CCCCCCCNC(=O)c1ccc(/C=N/N=C2\C(=O)Nc3ccc(F)cc32)cc1 ... 9
Nc1ccccc1NC(=O)CCCCCNC(=O)c1cccc(/C=C2\C(=O)Nc3ccc(F)cc32)c1 ... 97
O=C(CCCCCCCNC(=O)c1cccc(/C=C2\C(=O)Nc3ccc(F)cc32)c1)NO ... 65
O=C(CCCCNC(=O)c1cccc(/C=C2\C(=O)Nc3ccc(F)cc32)c1)NO ... 18
Cc1[nH]c(/C=N/N=C2\C(=O)Nc3ccc(F)cc32)c(C)c1C(=O)NCCCCCC(=O)Nc1ccc(F)cc1N ... 9
Cc1[nH]c(/C=N/N=C2\C(=O)Nc3ccc(F)cc32)c(C)c1C(=O)NCCCCC(=O)Nc1ccc(F)cc1N ... 7
Cc1[nH]c(/C=N/N=C2\C(=O)Nc3ccc(F)cc32)c(C)c1C(=O)NCCCCCCCC(=O)Nc1ccccc1N ... 36

## Input Entry under review: `Nc1cc(F)ccc1NC(=O)CCCCCNC(=O)c1cccc(/C=C2\C(=O)Nc3ccc(F)cc32)c1` . Reported Emax at 10 µM?
## Output 19

## Input Item: `O=C(CCCCCNC(=O)c1ccc(/C=C2\C(=O)Nc3ccc(F)cc32)cc1)NO`
## Output 13

## Input Could you do the same for `Nc1cc(F)ccc1NC(=O)CCCCCCCNC(=O)c1cccc(/C=C2\C(=O)Nc3ccc(F)cc32)c1` , please?
## Output 10

## Input Same thing, different compound: `Nc1ccccc1NC(=O)CCCCNC(=O)c1cccc(/C=C2\C(=O)Nc3ccc(F)cc32)c1`
## Output 18

## Input And then `Nc1ccccc1NC(=O)CCCCCNC(=O)c1ccc(/C=C2\C(=O)Nc3ccc(F)cc32)cc1` , what is it?
## Output 67

## Input Lookup `Cc1[nH]c(/C=N/N=C2\C(=O)Nc3ccc(F)cc32)c(C)c1C(=O)NCCCCCC(=O)Nc1ccccc1N`
## Output 18
